System: L1210 leukemia cells
EXPERIMENTAL PROTOCOL: In vitro IC50, suspension culture, cell count by Coulter Counter
Assay type: cell-based
CONDITION DESCRIPTION: compound present for 48 hours (four cell doubling times), read-out: IC50 L1210 Mouse Lymphoma
MEASUREMENT NAME: IC50 (nM)

> print(dat)
                            smiles.notation           system.name  measurement.name  measured.result
1  CN(C)c1ccc(-c2cc(-c3ccc(N)cc3)[s+]c(-c3ccc(N)cc3)c2)cc1.[Cl-]  L1210 leukemia cells              IC50              140
